B1: FBXO3 (parent)
chain: DEEERRRRVFDVPIRRRRCSRLF

variants of: B1; experiment: protein stability index of a GFP-peptide fusion (GPS, HEK-293T) (PSI 1-6); higher = more stable; details: c terminus: native;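 further: lentivirally expressed fusions sorted by FACS into six bins by GFP to DsRed ratio, PSI derived from sequencing read proportions per bin multiplied by bin number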
I'd be grateful if you could share measured protein stability index for these entries.
One number for each entry.

{"columns": ["mutation_name", "readout_kind", "endpoint_value"],
 "data": [
  ["F10I", "protein stability index", 3.84]
]}

Hi! Can you tell me protein stability index for each of these variants?
1. I14G
2. R5N
3. R5H
4. D11Y
5. V9A
6. L22G

**Result**
1: 3.04; 2: 3.77; 3: 3.41; 4: 1.67; 5: 3.43; 6: 3.06
